Tested on: U2OS
Experiment: Incucyte cell viability with U2OS; also: unitless GR value; below 1 slowed growth and below 0 cell loss
Assay type: toxicity, cell-based
Details: human, 6 h, 10 µM, compound concentration 10 uM, replicate number 2
Attribute Measured: Growth Rate
The answer should be written as a number, with no unit following it.

query: May I ask what Growth Rate has been recorded for CN1CCC[C@H]1c1cccnc1 ?
result: 0.24

query: Proceed to C=CC(=O)N1CCC[C@@H](n2nc(-c3ccc(Oc4ccccc4)cc3)c3c(N)ncnc32)C1
result: 0.61

query: Proceed to CCCCc1c(-c2ccccc2)nc(N)nc1-c1ccc(OCc2ccccc2)c(F)c1F
result: 0.27

query: Proceed to COc1cc(C(=O)NC2CCN(C)CC2)ccc1Nc1ncc(C(F)(F)F)c(NCc2ccc(C)cc2N(C)S(C)(=O)=O)n1.O=CO.O=CO
result: -0.57

query: Proceed to Fc1ccc(-c2c3cccc(C(F)(F)F)c3nn2Cc2ccc(F)cc2Cl)cc1
result: 0.69

query: Proceed to CCOC(=O)C1=C[C@]2(CC)CCCN3CCc4c(n1c1ccccc41)[C@@H]32
result: 0.42

query: Proceed to CCN1C(=O)N(c2c(F)c(OC)cc(OC)c2F)Cc2cnc3[nH]c(CN4CCOCC4)cc3c21
result: -0.01

query: Proceed to CC(C)N1CCN(Cc2cnc(-c3cc(-c4cccc5[nH]ccc45)cc4[nH]ncc34)o2)CC1
result: 0.36

query: Proceed to Cc1nnc2ccc(-c3cccc(C(F)(F)F)c3)nn12
result: 0.83

query: Proceed to C=CC[C@@H]1/C=C(\C)C[C@H](C)C[C@H](OC)[C@H]2O[C@@](O)(C(=O)C(=O)N3CCCC[C@H]3C(=O)O[C@H](/C(C)=C/[C@@H]3CC[C@@H](O)[C@H](OC)C3)[C@H](C)[C@@H](O)CC1=O)[C@H](C)C[C@@H]2OC.O
result: 0.5

query: Proceed to Cc1ccc(-n2nc(C(C)(C)C)cc2NC(=O)Nc2ccccc2F)cc1
result: 0.67

query: Proceed to COc1ccccc1S(=O)(=O)Nc1ccc2c(c1)CN(C)C(=O)N2
result: 0.5

query: Proceed to CC/C(=C(\c1ccccc1)c1ccc(OCCN(C)C)cc1)c1ccccc1.O=C(O)CC(O)(CC(=O)O)C(=O)O [TAMOXIFEN CITRATE]
result: 1

query: Proceed to O=C(O)C[C@H]1CC[C@H](c2ccc(NC(=O)c3nnc(Nc4ccc(F)c(F)c4)o3)cc2)CC1
result: 0.7

query: Proceed to N[C@@H]1CCCC[C@H]1Oc1ccc2ncc(-c3cc4ccccc4o3)n2n1
result: -0.91

query: Proceed to Cc1cc(OC2CCS(=O)(=O)CC2)cc(C)c1-c1cccc(COc2ccc(CCC(=O)O)c(F)c2)c1
result: 0.78

###

System: Fibroblast
Test: Incucyte cell viability with human fibroblast; also: unitless GR value; below 1 slowed growth and below 0 cell loss
Assay type: toxicity, cell-based
Conditions: 12 h, 10 µM, compound concentration 10 uM, replicate number 1
Attribute Measured: Growth Rate

query: May I ask what Growth Rate has been recorded for C=CC(=O)Nc1cc(-c2nn(C3CCC(N4CCN(C(C)=O)CC4)CC3)c3ncnc(N)c23)ccc1Oc1ccccc1 (configuration not stated) ?
result: -0.15

query: Proceed to CCN1C(=O)C(c2cccc(C(=O)O)c2)C(=O)N(c2ccccc2)c2cc(C(F)(F)F)ccc21 (configuration not stated)
result: 0.85

query: Proceed to COc1cc2c(NC3CCN(C(C)C)CC3)nc(C3CCCCC3)nc2cc1OCCCN1CCCC1
result: -0.07

query: Proceed to CCC(=O)O[C@]1(C(=O)CCl)[C@@H](C)C[C@H]2[C@@H]3CCC4=CC(=O)C=C[C@]4(C)[C@@]3(F)[C@@H](O)C[C@@]21C [CLOBETASOL PROPIONATE]
result: -1

query: Proceed to Cc1nccn1-c1ccc(Sc2cccc(C3(C(N)=O)CCOCC3)c2)cc1
result: 0.28

query: Proceed to Cn1cc(-c2ccc3occ(-c4cccc(-c5ccncc5)c4)c3n2)cn1
result: -0.8

query: Proceed to N[C@H](C(=O)O)[C@@H]1CC(Cl)=NO1 [ACIVICIN]
result: 0.08

query: Proceed to CC[C@H]1[C@@H](O)[C@@H]2[C@H](CC[C@]3(C)[C@@H]([C@H](C)CCC(=O)O)CC[C@@H]23)[C@@]2(C)CC[C@@H](O)C[C@@H]12 [OBETICHOLIC ACID]
result: 0.91

query: Proceed to Nc1n[nH]c2nc(-c3ccc(NS(=O)(=O)c4cccc(Cl)c4Cl)cc3)cnc12
result: -0.95

query: Proceed to COc1cc(N[C@@H]2CCCC[C@]2(O)C(F)(F)F)ccc1F [BAY-9897]
result: 0.82

query: Proceed to COC(=O)c1cc2c(cn1)[nH]c1ccccc12 [BETA-CCM]
result: -1

query: Proceed to O=C(Nc1ccc(-n2nc(C(F)(F)F)cc2C(F)(F)F)cc1)c1ccncc1F
result: -1

query: Proceed to Cl.Cl.O=[N+]([O-])c1ccc(CN2CCOCCOCCN(Cc3ccc([N+](=O)[O-])cc3)CCOCC2)cc1
result: -0.95

query: Proceed to Cc1cc2c(-c3ccco3)cnc(N[C@H]3CCN(C)C[C@@H]3C(=O)NC3CCCCC3)c2[nH]c1=O [GSK791]
result: 0.82

query: Proceed to CN(C)[C@H]1C[C@H](n2cnc(-c3ccc(F)cn3)c2-c2ccnc3[nH]ccc23)C1
result: 0.89

query: Proceed to CCN1CCN(Cc2ccc(C(=O)Nc3ccc(C)c(Oc4ccc5c(c4)CC(=O)N5)c3)cc2C(F)(F)F)CC1.Cl.Cl
result: -0.1

query: Proceed to C[C@@H](c1ccc(F)cc1)n1nnc2cnc3ccc(-c4ccc5ocnc5c4)cc3c21
result: -0.93
